Reference source for all entries: PubChem BioAssay (NCI)

Test system: HCT-116 colon
procedure summary: NCI tumour cell line growth inhibition, 48 h
Measured TGI, listed per entry for reference.
readout label: TGI

1) CCOC(=O)C1=C(NC)OC/C1=N\NC(=O)c1ccccc1O : 58.3 µM
2) O=NC1C(Cl)C2CC1C1C(Br)C(Br)CC21 (stereo not given) : > 100 µM
3) CCOC(=O)c1sc2c(c1OC(=O)c1cccs1)c(=O)n(-c1ccccc1)c(=S)n2-c1ccccc1 : 22 µM
4) COC(=O)[C@@H]1CN(C(=O)CCc2ccccc2)C(=O)N1C(=O)OCc1ccccc1 : > 100 µM
5) [N-]=[N+]=Nc1c(-c2ccccc2)c(Cl)nc2ccccc12 : > 100 µM
